half-life overview
- procedure.summary: Half life in iv dosed Beagle dog
- Type: ADME, organism-based, Canis lupus familiaris
- conditions: in vivo
test.readout: half-life (h)

[[record]]
structure = "NC(=O)c1cccc2[nH]c(-c3ccc([C@@H]4CCCCN4)cc3F)nc12"
unit_text = "h"
recorded_measurement = 2

[[record]]
structure = "NC(=O)c1cccc2[nH]c(-c3ccc([C@@H]4CCCN4)cc3F)nc12"
unit_text = "h"
recorded_measurement = 1.7


###

clearance overview
- procedure.summary: Clearance in CD1 mouse
- Format: ADME, organism-based
- conditions: in vivo
test.readout: clearance (mL/min/kg)

[[record]]
structure = "NC(=O)c1cccc2[nH]c(-c3ccc([C@@H]4CCCN4)cc3F)nc12"
test_readout = "clearance"
recorded_measurement = 48.3

[[record]]
structure = "NC(=O)c1cccc2[nH]c(-c3ccc([C@@H]4CCCCN4)cc3F)nc12"
test_readout = "clearance"
recorded_measurement = 60

[[record]]
structure = "NC(=O)c1cccc2[nH]c(-c3ccc([C@H]4CCCCN4)cc3F)nc12"
test_readout = "clearance"
recorded_measurement = 122

[[record]]
structure = "NC(=O)c1cccc2[nH]c(-c3ccc([C@H]4CCCN4)cc3F)nc12"
test_readout = "clearance"
recorded_measurement = 60


###

- procedure.summary: Cmax in Beagle dog at […], po
- Assay type: ADME, organism-based, Canis lupus familiaris
- Set-up: dose 2.5 mg/kg, route oral
- conditions: in vivo
Cmax overview
test.readout: Cmax (ng/mL)

[[record]]
structure = "NC(=O)c1cccc2[nH]c(-c3ccc([C@@H]4CCCCN4)cc3F)nc12"
recorded_measurement = 100

[[record]]
structure = "NC(=O)c1cccc2[nH]c(-c3ccc([C@@H]4CCCN4)cc3F)nc12"
recorded_measurement = 500


###

Cmax overview
- procedure.summary: Cmax in cynomolgus monkey at […], po
- Assay type: ADME, organism-based, Macaca fascicularis
- Parameters: dose 2.5 mg/kg, route oral
- conditions: in vivo
test.readout: Cmax (ng/mL)

[[record]]
structure = "NC(=O)c1cccc2[nH]c(-c3ccc([C@@H]4CCCN4)cc3F)nc12"
test_readout = "Cmax"
unit_text = "ng/mL"
recorded_measurement = 30

[[record]]
structure = "NC(=O)c1cccc2[nH]c(-c3ccc([C@@H]4CCCCN4)cc3F)nc12"
test_readout = "Cmax"
unit_text = "ng/mL"
recorded_measurement = 100


###

- procedure.summary: Oral bioavailability in CD1 mouse at 10 mg/kg
- Type: ADME, organism-based
- conditions: in vivo
test.readout: bioavailability (%)

[[record]]
structure = "NC(=O)c1cccc2[nH]c(-c3ccc([C@H]4CCCCN4)cc3F)nc12"
test_readout = "bioavailability"
unit_text = "%"
recorded_measurement = 100

[[record]]
structure = "NC(=O)c1cccc2[nH]c(-c3ccc([C@H]4CCCN4)cc3F)nc12"
test_readout = "bioavailability"
unit_text = "%"
recorded_measurement = 36

[[record]]
structure = "NC(=O)c1cccc2[nH]c(-c3ccc([C@@H]4CCCCN4)cc3F)nc12"
test_readout = "bioavailability"
unit_text = "%"
recorded_measurement = 63

[[record]]
structure = "NC(=O)c1cccc2[nH]c(-c3ccc([C@@H]4CCCN4)cc3F)nc12"
test_readout = "bioavailability"
unit_text = "%"
recorded_measurement = 36


###

- procedure.summary: AUC in Sprague-Dawley rat at 5 mg/kg, po
- Assay type: ADME, organism-based
- Parameters: dose 5 mg/kg, route oral
- conditions: plasma
AUC overview
test.readout: AUC

[[record]]
structure = "NC(=O)c1cccc2[nH]c(-c3ccc([C@@H]4CCCCN4)cc3F)nc12"
recorded_measurement = "1800 ng·h/mL"

[[record]]
structure = "NC(=O)c1cccc2[nH]c(-c3ccc([C@@H]4CCCN4)cc3F)nc12"
recorded_measurement = "1700 ng·h/mL"


###

- procedure.summary: AUC in cynomolgus monkey at […], po
- Assay type: ADME, organism-based, Macaca fascicularis
- Design: dose 2.5 mg/kg, route oral
- conditions: plasma
test.readout: AUC (ng·h/mL)

[[record]]
structure = "NC(=O)c1cccc2[nH]c(-c3ccc([C@@H]4CCCN4)cc3F)nc12"
recorded_measurement = 200

[[record]]
structure = "NC(=O)c1cccc2[nH]c(-c3ccc([C@@H]4CCCCN4)cc3F)nc12"
recorded_measurement = 750


###

AUC overview
- procedure.summary: AUC in CD1 mouse brain at 30 mg/kg, po
- Type: ADME, organism-based
- Parameters: dose 30 mg/kg, route oral
test.readout: AUC (ng·h/mL)

[[record]]
structure = "NC(=O)c1cccc2[nH]c(-c3ccc([C@H]4CCCCN4)cc3F)nc12"
test_readout = "AUC"
recorded_measurement = 6300

[[record]]
structure = "NC(=O)c1cccc2[nH]c(-c3ccc([C@@H]4CCCCN4)cc3F)nc12"
test_readout = "AUC"
recorded_measurement = 9100

[[record]]
structure = "NC(=O)c1cccc2[nH]c(-c3ccc([C@@H]4CCCN4)cc3F)nc12"
test_readout = "AUC"
recorded_measurement = 4200

[[record]]
structure = "NC(=O)c1cccc2[nH]c(-c3ccc([C@H]4CCCN4)cc3F)nc12"
test_readout = "AUC"
recorded_measurement = 1800


These measurements were taken from ChEMBL document CHEMBL1156198.
